Target: T1, FIP200 Claw F1574Q (human)
T1 chain: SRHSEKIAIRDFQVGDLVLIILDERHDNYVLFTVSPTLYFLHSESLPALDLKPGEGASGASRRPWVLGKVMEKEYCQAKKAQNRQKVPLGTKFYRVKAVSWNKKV
Assay: FP
Measured Property: pKd
Worth noting: pKd values are minus log10 of concentrations stated in mol/L.

Lab book: pKd of TASDDSDIVTLEPPK (domain or fragment) [CCPG1 FIR2 (residues 99–113), recombinant] noted as 3.92

Origin of values: paper PMC7946963
